# Test system: PYK2
# Construct: gene PTK2B
# Assay context: Compound Concentration (nM):1000;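 note: KINOMEscan scanMAX binding as percent activity remaining versus control; lower means stronger binding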
Consider the following molecules; for each one, report its Percent Control.
Give bare numbers, in %.

Record excerpt, results attached:
Cl.O=C(Nc1ccc(Oc2ccc3[nH]c(NC(=O)c4ccco4)nc3c2)cc1)Nc1cc(C(F)(F)F)ccc1F [GW683134A] ... 93
COc1cc(/C=N/Nc2ncnc3[nH]ncc23)ccc1O [GW578748X] ... 100
COc1cccc(-c2c[nH]c3c(N/N=C/c4ccncc4)ncnc23)c1 [GW814408X] ... 100

I would be grateful if you could provide Percent Control for each of the following entries.
1. CC1=C(C(=O)Nc2ccc3[nH]ncc3c2)C(c2ccc3ccccc3c2)CC(=O)N1 (centres unmarked) [GSK270822A]
2. NS(=O)(=O)c1ccc(N/N=C2\C(=O)Nc3ccc(C(=O)NCc4ccncc4)cc32)cc1 [GW300657X]
3. COc1ccccc1-c1cc(/C=C2\C(=O)Nc3ncc(Br)cc32)cc(Br)c1O [GW442130X]
4. COc1cc2ncnc(Nc3ccc4c(cnn4Cc4ccccc4)c3)c2cc1OC.Cl [GW282449A]
5. CCn1c(-c2nonc2N)nc2c(C#CC(C)(C)O)nc(OCCNC)cc21.Cl [GSK949675]
6. Cl.O=C(O[C@H]1CN[C@H](C#Cc2cc3ncnc(Nc4ccc5c(cnn5Cc5ccccc5)c4)c3s2)C1)N1CCOCC1 [GSK200398A]
7. COc1cc(C)c(N(C)C(=O)CN(C)C)cc1Nc1nc(Nc2cccc(F)c2C(N)=O)c2cc[nH]c2n1 [GSK2219385]
8. CN1CCN(C(=O)c2ccc(NC(=O)Nc3ccc(N(C)c4ccnc(Nc5ccc(CS(C)(=O)=O)cc5)n4)cc3)cc2)CC1.Cl [GW830263A]

1. 77
2. 58
3. 100
4. 100
5. 100
6. 99
7. 81
8. 20

I would be grateful if you could provide Percent Control for each of the following entries.
1. COc1cc2ncn(-c3cc(O[C@H](C)c4ccccc4Cl)c(C(N)=O)s3)c2cc1OC [GSK237701A]
2. COc1cccc(-n2ncc3c(N/N=C/c4ccncc4)ncnc32)c1 [GW784752X]

1. 62
2. 95

I would be grateful if you could provide Percent Control for each of the following entries.
1. COc1ccc2[nH]c3c4[nH]c5ccc(OC)cc5c4c4c(c3c2c1)C(=O)NC4=O [GW296115X]
2. O=C(Nc1n[nH]c2nc(-c3ccc(O)cc3)c(Br)cc12)C1CC1 [SB-725317]
3. Cc1cc(O)cc(C)c1/C=C/c1cncc(C(N)=O)c1 [GW435821X]
4. Cl.O=C(Nc1ccc(Oc2ccc3[nH]c(NC(=O)c4ccccc4)nc3c2)cc1)Nc1cc(C(F)(F)F)ccc1F [GW709042A]

68
100
100
100

* * *

Consider the following molecules; for each one, report its Percent Control.
# Tested on: RET(V804L)
# Assay context: Compound Concentration (nM):1000
One number for each entry, in %.

Record excerpt, results attached:
Cl.O=C(Nc1ccc(Oc2ccc3[nH]c(NC(=O)c4ccccc4)nc3c2)cc1)Nc1cc(C(F)(F)F)ccc1F [GW709042A] ... 3.6
COc1cc(C=NNc2ncnc3c2cnn3-c2ccccc2)ccc1O [GW513184X] ... 90
Nc1ncnc2occ(-c3ccc(NC(=O)Nc4cc(C(F)(F)F)ccc4F)cc3)c12 [GW770249X] ... 0.6
CN(C)CCNC(=O)Nc1ccc(N(C)c2ccnc(Nc3ccc(CS(C)(=O)=O)cc3)n2)cc1.Cl [GW830900A] ... 88
CCn1c(-c2nonc2N)nc2c(C#CC(C)(C)O)nc(OCCNC)cc21.Cl ... 88

I would be grateful if you could provide Percent Control for each of the following entries.
1. NS(=O)(=O)c1ccc(N/N=C2\C(=O)Nc3ccc(Cl)cc32)cc1 [GW280670X]
2. NS(=O)(=O)c1ccc(Nc2ncc(-c3ccccc3)o2)cc1 [GW572399X]
3. COc1cccc(-n2ncc3c(N/N=C/c4ccncc4)ncnc32)c1 [GW784752X]

1. 100
2. 100
3. 100

* * *

# Tested on: NIM1
# Construct: gene MGC42105
# Assay context: Compound Concentration (nM):1000
Respond with MET for Percent Control values of 90% and above, NOT MET for values below.

Say whether NS(=O)(=O)c1ccc(Nc2ncc(-c3ccccc3)o2)cc1 [GW572399X] shows Percent Control of 90% or more.
MET

Say whether Nc1ncnc2occ(-c3ccc(NC(=O)Nc4cc(C(F)(F)F)ccc4F)cc3)c12 [GW770249X] shows Percent Control of 90% or more.
MET

Say whether Cl.c1ccc(Cc2nc3ccc(Nc4ncnc5ccccc45)cc3[nH]2)cc1 [GR269666A] shows Percent Control of 90% or more.
MET

Say whether COc1cc(/C=N/Nc2ncnc3[nH]ncc23)ccc1O [GW578748X] shows Percent Control of 90% or more.
NOT MET

Say whether C[C@@H](Oc1cc(-n2cnc3ccc(OC4CCN(C)CC4)cc32)sc1C(N)=O)c1ccccc1Cl [GSK579289A] shows Percent Control of 90% or more.
NOT MET

Say whether CN(C)c1cc2c(Nc3ccc4c(cnn4Cc4ccccc4)c3)ncnc2cn1 [GW282974X] shows Percent Control of 90% or more.
NOT MET

Say whether COc1cc2ncn(-c3cc(O[C@H](C)c4ccccc4Cl)c(C(N)=O)s3)c2cc1OC [GSK237701A] shows Percent Control of 90% or more.
NOT MET

Say whether C/C(Nc1ccc(S(N)(=O)=O)cc1)=C1/C(=O)Nc2ccccc21 [GW335962X] shows Percent Control of 90% or more.
NOT MET

Say whether Cc1cc(O)cc(C)c1/C=C/c1cncc(C(N)=O)c1 [GW435821X] shows Percent Control of 90% or more.
MET

Say whether CC1=C(C(=O)Nc2ccc3[nH]ncc3c2)C(c2ccc(Cl)c(Cl)c2)CC(=O)N1 (stereo not shown) [GSK299115A] shows Percent Control of 90% or more.
NOT MET

Say whether COc1ccccc1-c1cc(/C=C2\C(=O)Nc3ncc(Br)cc32)cc(Br)c1O [GW442130X] shows Percent Control of 90% or more.
MET

Say whether Cl.O=C(Nc1ccc(Oc2ccc3[nH]c(NC(=O)c4ccco4)nc3c2)cc1)Nc1cc(C(F)(F)F)ccc1F [GW683134A] shows Percent Control of 90% or more.
MET

Say whether CCn1c(-c2nonc2N)nc2c(C#CC(C)(C)O)nc(OCCNC)cc21.Cl shows Percent Control of 90% or more.
MET

Say whether COc1ccc(COc2ccc(Cc3cnc(N)nc3N)cc2OC)cc1 [GW632580X] shows Percent Control of 90% or more.
NOT MET

Say whether COc1cc(C=NNc2ncnc3c2cnn3-c2ccccc2)ccc1O [GW513184X] shows Percent Control of 90% or more.
MET

Say whether NS(=O)(=O)c1ccc(N/N=C2\C(=O)Nc3ccc(C(=O)NCCc4c[nH]cn4)cc32)cc1 [GW300660X] shows Percent Control of 90% or more.
NOT MET

Say whether NS(=O)(=O)c1ccc(N/N=C2\C(=O)Nc3ccc(-c4cnco4)cc32)cc1 shows Percent Control of 90% or more.
NOT MET

* * *

# System: PIK3CD
# Assay context: Compound Concentration (nM):1000
Respond with yes for Percent Control values of 90% and above, no for values below.

For orientation, consider the following solved cases.
COc1ccc2[nH]c3c4[nH]c5ccc(OC)cc5c4c4c(c3c2c1)C(=O)NC4=O [GW296115X] ... no
Cl.c1ccc(Cc2nc3ccc(Nc4ncnc5ccccc45)cc3[nH]2)cc1 [GR269666A] ... yes
COc1cccc(-n2ncc3c(N/N=C/c4ccncc4)ncnc32)c1 [GW784752X] ... yes
CCn1c(-c2nonc2N)nc2c(C#CC(C)(C)O)nc(OCCNC)cc21.Cl ... no
Cc1cc(O)cc(C)c1/C=C/c1cncc(C(N)=O)c1 [GW435821X] ... no
NS(=O)(=O)c1ccc(N/N=C2\C(=O)Nc3ccc(C(=O)NCCc4c[nH]cn4)cc32)cc1 [GW300660X] ... yes

Say whether COc1cc(N2CCN(C(C)C)CC2)ccc1Nc1nc(Nc2ccc(F)cc2C(=O)NC[C@@H](O)CO)c2cc[nH]c2n1 [GSK1392956A] shows Percent Control of 90% or more.
no

* * *

Consider the following compounds; for each one, report its Percent Control.
# Tested on: EPHB3
# Assay context: Compound Concentration (nM):1000
One number for each entry, in %.

Record excerpt, results attached:
CCc1ccc(Oc2nccc(-c3c(-c4ccc(F)cc4)ncn3C3CCNCC3)n2)cc1 ... 94
COc1cc(C)c(N(C)C(=O)CN(C)C)cc1Nc1nc(Nc2cccc(F)c2C(N)=O)c2cc[nH]c2n1 ... 93
Cl.O=S1CCN(Cc2ccc(-c3ccc4ncnc(Nc5ccc(OCc6ccccc6)c(F)c5)c4c3)o2)CC1 [GW576924A] ... 100
CCS(=O)(=O)c1ccc(OC)c(Nc2ncc(-c3cccc(F)c3)o2)c1 [GW621970X] ... 100
CCS(=O)(=O)c1ccc(OC)c(Nc2ncc(-c3cccc(OC)c3)o2)c1 [GW580509X] ... 100

I would be grateful if you could provide Percent Control for each of the following entries.
1. COc1cc2ncnc(Nc3ccc4c(cnn4Cc4ccccc4)c3)c2cc1OC.Cl [GW282449A]
2. COc1ccccc1-c1cc(/C=C2\C(=O)Nc3ncc(Br)cc32)cc(Br)c1O [GW442130X]
3. NS(=O)(=O)c1ccc(Nc2ncc(-c3ccccc3)o2)cc1 [GW572399X]

[100, 100, 94]
